Target: Recombinant C-PrP (residues 120-230) (Mus musculus)
MEASURED ENDPOINT: pKd
The value called pKd is obtained by taking minus log10 of the concentration in mol/L.

The molecule O=C(O)c1cc(NC(=S)NN=C2C(O)C(O)C(O)C(O)C2O)ccc1-c1c2ccc(=O)cc-2oc2cc(O)ccc12 (stereo not shown) , when measured on Recombinant C-PrP (residues 120-230) (Mus musculus), yielded pKd of 5.40

---

Recorded pKd values for a group of compounds are listed next.
Target: recombinant mouse PrP^C (Mus musculus, UniProt P04925)
Assay: biochemical
The value called pKd is obtained by taking minus log10 of the concentration in mol/L.

Observe how each entry below is paired with its result.
CC(C)(C)NC(=S)N/N=C1\[C@@H](O)[C@@H](O)[C@@H](O)[C@H](O)[C@H]1O	4.20
O[C@@H]1[C@H](O)[C@H](O)/C(=N\NC(=S)NCc2ccc(F)cc2)[C@H](O)[C@H]1O	4.21
COc1ccc(CCNC(=S)N/N=C2\[C@@H](O)[C@@H](O)[C@@H](O)[C@H](O)[C@H]2O)cc1OC	4.19

--- query ---
Item: NC(=S)NN=C1C(O)C(O)C(O)C(O)C1O (centres unmarked) | pKd: 6.24
